GST activity toward CDNB: recorded values
Experiment: GST activity toward CDNB
Format: biochemical
Conditions: recombinant wheat GST expressed in E. coli, affinity purified
# output: bare number, implied unit nkat.mg^−1

{"molecule": "TaGST1: recombinant wheat GST from TaGST1 cDNA (SEQ ID No. 1, amino acid SEQ ID No. 2) expressed in E. coli (protein, Triticum aestivum L.) MAGEKGLVLLDFWVSPFGQRVRIALAEKGLPYEYAEEDLMAGKSDRLLRANPVHKKIPVLLHDGRAVNESLIILQYLEEAFPDAPALLPSDPYARAQARFWADYVDKKVYDCGSRLWKLKGEPQAQARAEMLDILKTLDGALGDKPFFGGDKFGFVDAAFAPFTAWFHSYERYGEFSLPEVAPKIAAWAKRCGERESVAKSLYSPDKVYDFIGLLKKKYGIE", "GST activity toward CDNB / nkat.mg^−1": 1970}
{"molecule": "WIC 2: recombinant type I wheat GST, SEQ ID No. 5, amino acid SEQ ID No. 6 (protein, Triticum aestivum L.) MAPAVKVYGWAVSPFVARPLLCLEEAGVEYELVSMSRAAGDHRQPDFLARNPFGQVPVLEDGDLTLFESRAIARHVLRKHKPELLGCGSPEAEAMVDVWLEVEAHQYNPAASAIVVQCIILPLLGGARDQAVVDENVAKLKKVLEVYEARLSASRYLAGDDISLADLSHFPFTRYFMETEYAPLVAELPHVNAWWEGLKARPAARKVTELMPPDLGLGKKAE", "GST activity toward CDNB / nkat.mg^−1": 187}

Here's the next entry for you.
What value of measured GST activity toward CDNB is listed for WIC 4: recombinant type I wheat GST, SEQ ID No. 11, amino acid SEQ ID No. 12; coding sequence identical in WIC 10 (protein, Triticum aestivum L.) MAPVKVFGPAMSTNVARVLVCLEEVGAEYEVVDIDFKAMEHKSPEHLVRNPFGQIPAFQDGDLLLFESRAIARYVLRKYKKNEVDLLREGDLKEAAMVDVWTEVDAHTYNPAISPIVYECSSTAHARLPTNQTVVDESLEKLKNVLEVYEARLSKHDYLAGDFVSFADLNHFPYTFYFMATPHAALFDSYPHVKAWWERIMARPAVKKLAAQMVPKKP ?
980

Where do the numbers come from? From patent US6730828B1.
